# Test system: lentivirus with D614G SC2 spike protein, A549 cells overexpressing ACE2 and TMPRSS2
# Type: cell-based, SARS-CoV-2
# Parameters: key: –: −: inactive; ++: qualitative inhibition of SC2 uptake
Readout label: qualitative inhibition of SC2 uptake (heatmap)

O=C(O)Cn1[se]c2ccccc2c1=O [Compound 45, reference compound] ... ++
CC#CI1OC(=O)c2ccccc21 [Compound 49, reference compound] ... –
CCN1C(=O)C2SSSSC1C(=O)N2CC(=O)O (stereo not shown) [Compound 47, reference compound] ... –
O=S1(=O)C[C@H](O)[C@H](O)CS1 (stereo in doubt) ... ++
